# tested-system: HCoV-229E Spike (Human coronavirus 229E)
# Sequence (P15423 16-1173): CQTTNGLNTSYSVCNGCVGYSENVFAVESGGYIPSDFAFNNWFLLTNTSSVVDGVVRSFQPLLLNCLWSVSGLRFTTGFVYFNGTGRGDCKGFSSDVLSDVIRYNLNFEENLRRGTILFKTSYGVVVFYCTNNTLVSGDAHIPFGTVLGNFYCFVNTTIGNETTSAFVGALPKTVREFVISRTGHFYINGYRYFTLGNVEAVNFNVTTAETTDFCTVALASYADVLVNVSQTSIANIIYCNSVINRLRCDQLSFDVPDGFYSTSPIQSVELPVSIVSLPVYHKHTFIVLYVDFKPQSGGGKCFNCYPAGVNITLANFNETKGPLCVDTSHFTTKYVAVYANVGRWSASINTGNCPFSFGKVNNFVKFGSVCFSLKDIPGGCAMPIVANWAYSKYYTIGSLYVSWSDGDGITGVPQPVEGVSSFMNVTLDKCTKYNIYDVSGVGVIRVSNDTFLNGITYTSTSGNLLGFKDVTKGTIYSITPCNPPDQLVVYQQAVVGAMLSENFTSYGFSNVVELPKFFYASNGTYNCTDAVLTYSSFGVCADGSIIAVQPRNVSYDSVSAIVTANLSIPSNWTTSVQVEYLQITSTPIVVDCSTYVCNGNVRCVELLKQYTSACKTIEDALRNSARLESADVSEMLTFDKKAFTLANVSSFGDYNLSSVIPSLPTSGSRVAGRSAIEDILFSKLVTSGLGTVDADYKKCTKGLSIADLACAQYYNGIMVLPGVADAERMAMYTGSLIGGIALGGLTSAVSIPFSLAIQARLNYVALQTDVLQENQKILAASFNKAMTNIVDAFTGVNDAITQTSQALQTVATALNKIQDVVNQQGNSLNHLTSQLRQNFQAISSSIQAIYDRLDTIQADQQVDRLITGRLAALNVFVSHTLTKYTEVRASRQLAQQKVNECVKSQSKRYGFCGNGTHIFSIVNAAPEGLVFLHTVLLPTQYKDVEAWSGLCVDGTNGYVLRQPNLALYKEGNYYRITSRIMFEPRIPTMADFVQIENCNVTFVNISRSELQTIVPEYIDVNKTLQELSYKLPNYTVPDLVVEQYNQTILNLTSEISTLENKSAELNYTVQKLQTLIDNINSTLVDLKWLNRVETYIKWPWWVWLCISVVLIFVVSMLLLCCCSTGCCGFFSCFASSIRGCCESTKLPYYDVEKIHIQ
metric-name: Kd

Problem: // output Kd; input COc1ccc2cc1Oc1ccc(cc1)C[C@H]1c3cc(c(OC)cc3CCN1C)Oc1c(OC)c(OC)cc3c1[C@H](C2)N(C)CC3 ; system HCoV-229E Spike (Human coronavirus 229E)
Result: ~530 nM

###

# tested-system: hTMPRSS2 (Homo sapiens)
# Sequence (O15393 whole entry): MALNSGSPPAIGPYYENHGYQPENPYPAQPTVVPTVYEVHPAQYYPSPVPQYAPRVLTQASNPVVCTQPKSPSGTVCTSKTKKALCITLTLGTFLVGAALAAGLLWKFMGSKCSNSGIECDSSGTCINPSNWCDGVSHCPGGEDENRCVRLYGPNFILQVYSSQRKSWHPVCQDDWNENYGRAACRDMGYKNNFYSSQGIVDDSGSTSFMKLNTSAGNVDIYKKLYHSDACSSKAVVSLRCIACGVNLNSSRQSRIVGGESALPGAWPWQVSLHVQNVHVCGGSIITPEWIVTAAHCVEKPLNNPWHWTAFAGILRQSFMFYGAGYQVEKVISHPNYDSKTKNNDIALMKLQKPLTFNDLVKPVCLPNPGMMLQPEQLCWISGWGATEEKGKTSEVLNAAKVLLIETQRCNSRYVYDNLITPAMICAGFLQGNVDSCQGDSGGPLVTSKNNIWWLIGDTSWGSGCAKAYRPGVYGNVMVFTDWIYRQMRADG
metric-name: Kd

Problem: Give Kd; test system hTMPRSS2 (Homo sapiens); molecule COc1ccc2cc1Oc1ccc(cc1)C[C@H]1c3cc(c(OC)cc3CCN1C)Oc1c(OC)c(OC)cc3c1[C@H](C2)N(C)CC3 [tetrandrine]
Result: 4.59 µM
